# STATED CONDITIONS: accelerated conditions; HPLC; 1 mo
OBSERVED PROPERTY: Purity

{"MOLECULE": "C=CC(=O)Nc1cc(Nc2nccc(-n3cc(CN(C)C)c(-c4ccccc4)n3)n2)c(OC)cc1N1CCOCC1.Cl [C. Ex. 2]", "RESULT": "99.0%"}
{"MOLECULE": "C=CC(=O)Nc1cc(Nc2nccc(-n3cc(CN(C)C)c(-c4ccccc4)n3)n2)c(OC)cc1N1CCOCC1 [Ex. 1]", "RESULT": "99.3%"}
{"MOLECULE": "C=CC(=O)Nc1cc(Nc2nccc(-n3cc(CN(C)C)c(-c4ccccc4)n3)n2)c(OC)cc1N1CCOCC1.O=C(O)CC(O)(CC(=O)O)C(=O)O [C. Ex. 3]", "RESULT": "98.9%"}

Attention now turns to another entry.
// field: Purity; key: C=CC(=O)Nc1cc(Nc2nccc(-n3cc(CN(C)C)c(-c4ccccc4)n3)n2)c(OC)cc1N1CCOCC1.CCS(=O)(=O)O [C. Ex. 4] ; value = 99.1%

---

// Content lookup, one value per entry
# ASSAY NAME: Stability test under stress conditions (PXRD, DSC, appearance, HPLC)
# STATED CONDITIONS: stress conditions; HPLC; Start
Write down the numeric answer in % and omit the unit.

{"STRUCTURE NOTATION": "C=CC(=O)Nc1cc(Nc2nccc(-n3cc(CN(C)C)c(-c4ccccc4)n3)n2)c(OC)cc1N1CCOCC1.O=C(O)CC(O)(CC(=O)O)C(=O)O", "OBSERVED PROPERTY": "Content", "QUANTITATIVE RESULT": 100.0}
{"STRUCTURE NOTATION": "C=CC(=O)Nc1cc(Nc2nccc(-n3cc(CN(C)C)c(-c4ccccc4)n3)n2)c(OC)cc1N1CCOCC1", "OBSERVED PROPERTY": "Content", "QUANTITATIVE RESULT": 98.8}
{"STRUCTURE NOTATION": "C=CC(=O)Nc1cc(Nc2nccc(-n3cc(CN(C)C)c(-c4ccccc4)n3)n2)c(OC)cc1N1CCOCC1.CCS(=O)(=O)O", "OBSERVED PROPERTY": "Content", "QUANTITATIVE RESULT": 96.5}

Attention now turns to another entry.
// field: Content; key: "C=CC(=O)Nc1cc(Nc2nccc(-n3cc(CN(C)C)c(-c4ccccc4)n3)n2)c(OC)cc1N1CCOCC1.Cl" ; value = 97.4

---

// Water content lookup, one value per entry
# ASSAY NAME: Stability test under stress conditions (PXRD, DSC, appearance, HPLC)
# STATED CONDITIONS: stress conditions; 2 weeks
Numeric answer plus unit only.

Past entries and their recorded results:
{"STRUCTURE NOTATION": "C=CC(=O)Nc1cc(Nc2nccc(-n3cc(CN(C)C)c(-c4ccccc4)n3)n2)c(OC)cc1N1CCOCC1.Cl", "Water content": "1.23%"}
{"STRUCTURE NOTATION": "C=CC(=O)Nc1cc(Nc2nccc(-n3cc(CN(C)C)c(-c4ccccc4)n3)n2)c(OC)cc1N1CCOCC1", "Water content": "2.71%"}
{"STRUCTURE NOTATION": "C=CC(=O)Nc1cc(Nc2nccc(-n3cc(CN(C)C)c(-c4ccccc4)n3)n2)c(OC)cc1N1CCOCC1.O=C(O)CC(O)(CC(=O)O)C(=O)O", "Water content": "0.62%"}

// field: Water content; key: "C=CC(=O)Nc1cc(Nc2nccc(-n3cc(CN(C)C)c(-c4ccccc4)n3)n2)c(OC)cc1N1CCOCC1.CCS(=O)(=O)O" ; value = 1.37%
